For each entry below, report its IC50 value.
# TARGET SYSTEM: human Trk A kinase (Homo sapiens)
# Construct: HIS
# Sequence (P04629 442-796): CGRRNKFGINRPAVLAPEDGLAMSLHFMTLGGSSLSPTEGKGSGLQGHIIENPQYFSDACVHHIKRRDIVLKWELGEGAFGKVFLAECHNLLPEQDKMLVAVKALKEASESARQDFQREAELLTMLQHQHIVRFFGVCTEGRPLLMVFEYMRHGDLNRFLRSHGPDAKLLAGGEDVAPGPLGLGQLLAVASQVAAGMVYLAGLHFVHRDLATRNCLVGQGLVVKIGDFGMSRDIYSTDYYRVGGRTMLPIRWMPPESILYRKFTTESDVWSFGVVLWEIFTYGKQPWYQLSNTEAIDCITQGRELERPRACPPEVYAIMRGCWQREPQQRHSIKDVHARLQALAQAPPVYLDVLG
# ASSAY DETAILS: Trk A kinase assay (Alphascreen)
# EXPERIMENTAL CONDITIONS: human Trk A intracellular domain, 70 μM ATP, 20 minutes, room temperature; read-out: IC50 (Trk inhibitory activity)
Write down the numeric answer in nM and omit the unit.

Task item: Need IC50 of "C[C@H](Nc1ccc([N+](=O)[O-])c(Nc2cc(C3CC3)[nH]n2)n1)c1ccc(F)cc1" , thanks.
Reply: 63

Task item: Need IC50 of C[C@H](Nc1nc(Nc2cc(C3CC3)[nH]n2)c(F)cc1CNC(=O)C1CCC(=O)N1)c1ccc(F)cc1 (stereo partly drawn) , thanks.
Reply: 109

Task item: Need IC50 of "C[C@H](Nc1nc(Nc2cc(C3CC3)[nH]n2)c(Cl)cc1Cl)c1ccc(F)cc1" , thanks.
Reply: 611
